target: human IL-17RA (human, UniProt Q96F46 33-866); experiment: cell-based or functional assay
READOUT: % Inhib. of IL-5 production, TSLP treated human PBMC + IL-2 + IL-25, Expt. 2 (%)
Could you give me the number in %? Just the number is fine.

So what's the measured % Inhib. of IL-5 production, TSLP treated human PBMC + IL-2 + IL-25, Expt. 2 for this one? 2.98.1 (antibody, V domains shown) VH: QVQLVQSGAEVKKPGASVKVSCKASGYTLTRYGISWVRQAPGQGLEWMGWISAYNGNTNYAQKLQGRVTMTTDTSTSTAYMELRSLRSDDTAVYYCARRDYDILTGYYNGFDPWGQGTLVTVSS VL: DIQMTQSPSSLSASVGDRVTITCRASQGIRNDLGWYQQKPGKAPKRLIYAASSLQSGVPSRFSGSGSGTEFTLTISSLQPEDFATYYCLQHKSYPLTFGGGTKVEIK
79
